EXPERIMENTAL_TARGET: dengue 2 protease (Dengue virus type 2)
Construct: The active site of the dengue protease is in the N-terminal part of NS3
Sequence (P14340 1476-1653): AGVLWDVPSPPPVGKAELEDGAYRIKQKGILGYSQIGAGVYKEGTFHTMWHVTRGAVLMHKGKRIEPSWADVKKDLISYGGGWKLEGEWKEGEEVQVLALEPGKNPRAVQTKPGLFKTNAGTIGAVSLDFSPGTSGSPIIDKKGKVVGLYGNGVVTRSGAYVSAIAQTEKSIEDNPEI
PROCEDURE_DETAILS: Dengue 2 protease inhibition, hydrolysis of Z-RR-MCA
Assay type: biochemical, dengue 2 virus
SETTINGS: 15 μM inhibitor, 36.5° C.
Residues, ends and D or L forms follow the SMILES beside them.
Listed compounds paired with reported activity at 15 µM

Below are worked cases with known answers.
[
  {
    "COMPOUND": "CCCCCCCCCCCCCCCCNC(=O)[C@H](CCCCN)NC(=O)CNC(=O)[C@H](CCCCN)NC(=O)CCCCCCCCCCCCCCC [C16-KGK-C16, C15H31CO-KGK-NH—C16H33]",
    "activity at 15 µM": "40%"
  },
  {
    "COMPOUND": "CCCCCCCCCCCCCCCCNC(=O)[C@H](CCCCN)NC(=O)[C@H](C)NC(=O)[C@H](C)NC(=O)[C@H](C)NC(=O)[C@H](CCCCN)NC(=O)CCCCCCCCCCCCCCC [C16-KAAAK-C16] (HELM PEPTIDE1{[CCCCCCCCCCCCCCCC(=O)[*:2]].K.A.A.A.K.[CCCCCCCCCCCCCCCCN[*:1]]}$$$$V2.0)",
    "activity at 15 µM": "64%"
  },
  {
    "COMPOUND": "CCCCCCCCCCCCCCCCNC(=O)[C@H](CCCCN)NC(=O)[C@H](C)NC(=O)[C@H](C)NC(=O)[C@H](CCCCN)NC(=O)CCCCCCCCCCCCCCC [C16-KAAK-C16] (HELM PEPTIDE1{[CCCCCCCCCCCCCCCC(=O)[*:2]].K.A.A.K.[CCCCCCCCCCCCCCCCN[*:1]]}$$$$V2.0)",
    "activity at 15 µM": "45%"
  },
  {
    "COMPOUND": "CCCCCCCCCCCCCCCCNC(=O)[C@H](CCCCN)NC(=O)[C@H](C)NC(=O)[C@H](CCCCN)NC(=O)CCCCCCCCCCCCCCC [C16-KAK-C16]",
    "activity at 15 µM": "15%"
  }
]

Ask: Given CCCCCCCCCCCCCCCCNC(=O)[C@H](CCCCN)NC(=O)[C@H](C)NC(=O)[C@H](C)NC(=O)[C@H](C)NC(=O)[C@H](C)NC(=O)[C@H](CCCCN)NC(=O)CCCCCCCCCCCCCCC [C16-KAAAAK-C16] (HELM PEPTIDE1{[CCCCCCCCCCCCCCCC(=O)[*:2]].K.A.A.A.A.K.[CCCCCCCCCCCCCCCCN[*:1]]}$$$$V2.0) , respond with its activity at 15 µM.
Result: 79%

* * *

EXPERIMENTAL_TARGET: trypsin (Bos taurus)
Construct: gene PRSS1
Sequence (P00760 24-246): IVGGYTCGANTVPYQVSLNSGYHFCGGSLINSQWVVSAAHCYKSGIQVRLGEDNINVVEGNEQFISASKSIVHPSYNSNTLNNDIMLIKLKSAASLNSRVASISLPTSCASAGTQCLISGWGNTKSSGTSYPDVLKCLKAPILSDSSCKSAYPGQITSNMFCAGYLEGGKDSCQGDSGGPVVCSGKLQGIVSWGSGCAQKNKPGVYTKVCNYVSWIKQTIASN
PROCEDURE_DETAILS: Trypsin inhibition, fluorimetric enzyme assay
Assay type: biochemical
SETTINGS: 55 μM inhibitor, 36.5° C.; read-out: Residual Activity (%) Trypsin
Residues, ends and D or L forms follow the SMILES beside them.
Strictly below 60% in remaining activity at 55 µM: Yes. Otherwise: No.

Worked set:
[
  {
    "COMPOUND": "CCCCCCCCCCCCCCCCNC(=O)[C@H](CCCCN)NC(=O)CNC(=O)CNC(=O)[C@H](CCCCN)NC(=O)CCCCCCCCCCCCCCC [C16-KGGK-C16, C15H31CO-KGGK-NH—C16H33] (HELM PEPTIDE1{[CCCCCCCCCCCCCCCC(=O)[*:2]].K.G.G.K.[CCCCCCCCCCCCCCCCN[*:1]]}$$$$V2.0)",
    "CLASS_ASSIGNMENT": "Yes"
  },
  {
    "COMPOUND": "CCCCCCCCCCCCCCCCNC(=O)[C@H](CCCCN)NC(=O)CNC(=O)[C@H](CCCCN)NC(=O)CCCCCCCCCCCCCCC [C16-KGK-C16, C15H31CO-KGK-NH—C16H33]",
    "CLASS_ASSIGNMENT": "Yes"
  },
  {
    "COMPOUND": "CCCCCCCCCCCCCCCCNC(=O)[C@H](CCCCN)NC(=O)[C@H](CCCCN)NC(=O)CCCCCCCCCCCCCCC [C16-KK-C16, C15H31CO-KK-NH—C16H33]",
    "CLASS_ASSIGNMENT": "Yes"
  },
  {
    "COMPOUND": "CCCCCCCCCCCCCCCCNC(=O)[C@H](CCCCN)NC(=O)CNC(=O)CNC(=O)CNC(=O)[C@H](CCCCN)NC(=O)CCCCCCCCCCCCCCC [C16-KGGGK-C16, C15H31CO-KGGGK-NH—C16H33] (HELM PEPTIDE1{[CCCCCCCCCCCCCCCC(=O)[*:2]].K.G.G.G.K.[CCCCCCCCCCCCCCCCN[*:1]]}$$$$V2.0)",
    "CLASS_ASSIGNMENT": "Yes"
  }
]

In the following, a different compound is considered.
Ask: Please check: remaining activity at 55 µM for CCCCCCCCCCCCCCCCNC(=O)[C@H](CCCCN)NC(=O)CNC(=O)CNC(=O)CNC(=O)CNC(=O)[C@H](CCCCN)NC(=O)CCCCCCCCCCCCCCC [C16KG4KC16] (HELM PEPTIDE1{[CCCCCCCCCCCCCCCC(=O)[*:2]].K.G.G.G.G.K.[CCCCCCCCCCCCCCCCN[*:1]]}$$$$V2.0) , strictly under 60% or not?
Result: No

* * *

EXPERIMENTAL_TARGET: human furin (Homo sapiens)
Sequence (P09958 108-794): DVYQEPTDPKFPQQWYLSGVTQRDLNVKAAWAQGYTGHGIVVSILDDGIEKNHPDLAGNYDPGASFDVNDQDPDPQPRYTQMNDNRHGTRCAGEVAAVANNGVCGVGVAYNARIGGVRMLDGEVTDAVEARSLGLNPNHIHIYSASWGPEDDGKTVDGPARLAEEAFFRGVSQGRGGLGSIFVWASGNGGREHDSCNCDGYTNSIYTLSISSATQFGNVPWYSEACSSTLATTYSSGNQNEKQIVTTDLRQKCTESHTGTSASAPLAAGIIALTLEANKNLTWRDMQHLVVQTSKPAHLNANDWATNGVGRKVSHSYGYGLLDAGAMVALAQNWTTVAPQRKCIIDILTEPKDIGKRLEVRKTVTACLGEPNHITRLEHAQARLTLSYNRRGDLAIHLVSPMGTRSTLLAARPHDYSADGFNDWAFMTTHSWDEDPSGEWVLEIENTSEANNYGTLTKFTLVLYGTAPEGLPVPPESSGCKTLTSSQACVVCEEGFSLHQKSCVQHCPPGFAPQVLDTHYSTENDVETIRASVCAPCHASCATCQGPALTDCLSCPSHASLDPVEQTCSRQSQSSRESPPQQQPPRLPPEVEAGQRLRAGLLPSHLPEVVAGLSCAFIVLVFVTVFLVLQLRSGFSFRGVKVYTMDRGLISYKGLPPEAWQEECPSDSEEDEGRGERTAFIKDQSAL
PROCEDURE_DETAILS: Human furin inhibition, hydrolysis of Ac-RVRR-MCA
Type: biochemical
SETTINGS: 20 μM inhibitor, 36.5° C.
Protocol: The enzyme was dissolved in 1 mL MES buffer (10 mM), 1 mM CaCl2, pH 7.0 at 36.5° C. […] The residual activity was measured in a Hitachi F2500 spectrofluorimeter, and plots were fitted using the Grafit® software (Erithracus Software, Horley, Surrey, UK). All the assays were calculated by the Morrison equation for competitive inhibition (eq. 1, [Morrison, 1969]). […]
Residues, ends and D or L forms follow the SMILES beside them.
READOUT_KIND: activity at 20 µM (%)
Dear colleague, please return just the value in %, with no unit written.

Below are worked cases with known answers.
[
  {
    "COMPOUND": "CCCCCCCCCCCCCCCCNC(=O)[C@H](CCCCN)NC(=O)[C@H](CCCCN)NC(=O)CCCCCCCCCCCCCCC [C16-KK-C16, C15H31CO-KK-NH—C16H33]",
    "activity at 20 µM / %": 10
  },
  {
    "COMPOUND": "CCCCCCCCCCCCCCCCNC(=O)[C@H](CCCCN)NC(=O)CNC(=O)CNC(=O)CNC(=O)[C@H](CCCCN)NC(=O)CCCCCCCCCCCCCCC [C16-KGGGK-C16, C15H31CO-KGGGK-NH—C16H33] (HELM PEPTIDE1{[CCCCCCCCCCCCCCCC(=O)[*:2]].K.G.G.G.K.[CCCCCCCCCCCCCCCCN[*:1]]}$$$$V2.0)",
    "activity at 20 µM / %": 20
  }
]

Ask: Given CCCCCCCCCCCCCCCCNC(=O)[C@H](CCCCN)NC(=O)CNC(=O)CNC(=O)CNC(=O)CNC(=O)[C@H](CCCCN)NC(=O)CCCCCCCCCCCCCCC [C16KG4KC16] (HELM PEPTIDE1{[CCCCCCCCCCCCCCCC(=O)[*:2]].K.G.G.G.G.K.[CCCCCCCCCCCCCCCCN[*:1]]}$$$$V2.0) , respond with its activity at 20 µM.
Result: 23

Ask: Given CCCCCCCCCCCCCCCCNC(=O)[C@H](CCCCN)NC(=O)CNC(=O)[C@H](CCCCN)NC(=O)CCCCCCCCCCCCCCC [C16-KGK-C16, C15H31CO-KGK-NH—C16H33] , respond with its activity at 20 µM.
Result: 4

Ask: Given CCCCCCCCCCCCCCCCNC(=O)[C@H](CCCCN)NC(=O)CNC(=O)CNC(=O)[C@H](CCCCN)NC(=O)CCCCCCCCCCCCCCC [C16-KGGK-C16, C15H31CO-KGGK-NH—C16H33] (HELM PEPTIDE1{[CCCCCCCCCCCCCCCC(=O)[*:2]].K.G.G.K.[CCCCCCCCCCCCCCCCN[*:1]]}$$$$V2.0) , respond with its activity at 20 µM.
Result: 67

* * *

EXPERIMENTAL_TARGET: human furin (Homo sapiens)
PROCEDURE_DETAILS: Human furin inhibition, hydrolysis of Ac-RVRR-MCA
Assay type: biochemical
SETTINGS: 15 μM inhibitor, 36.5° C.
Residues, ends and D or L forms follow the SMILES beside them.
Listed compounds paired with reported activity at 15 µM
Dear colleague, please return just the value in %, with no unit written.

Below are worked cases with known answers.
[
  {
    "COMPOUND": "CCCCCCCCCCCCCCCCNC(=O)[C@H](CCCCN)NC(=O)CNC(=O)CNC(=O)CNC(=O)CNC(=O)[C@H](CCCCN)NC(=O)CCCCCCCCCCCCCCC [C16KG4KC16] (HELM PEPTIDE1{[CCCCCCCCCCCCCCCC(=O)[*:2]].K.G.G.G.G.K.[CCCCCCCCCCCCCCCCN[*:1]]}$$$$V2.0)",
    "RESULT": 54
  },
  {
    "COMPOUND": "CCCCCCCCCCCCCCCCNC(=O)[C@H](CCCCN)NC(=O)CNC(=O)CNC(=O)[C@H](CCCCN)NC(=O)CCCCCCCCCCCCCCC [C16-KGGK-C16, C15H31CO-KGGK-NH—C16H33] (HELM PEPTIDE1{[CCCCCCCCCCCCCCCC(=O)[*:2]].K.G.G.K.[CCCCCCCCCCCCCCCCN[*:1]]}$$$$V2.0)",
    "RESULT": 76
  },
  {
    "COMPOUND": "CCCCCCCCCCCCCCCCNC(=O)[C@H](CCCCN)NC(=O)[C@H](C)NC(=O)[C@H](CCCCN)NC(=O)CCCCCCCCCCCCCCC [C16-KAK-C16]",
    "RESULT": 0
  },
  {
    "COMPOUND": "CCCCCCCCCCCCCCCCNC(=O)[C@H](CCCCN)NC(=O)CNC(=O)[C@H](CCCCN)NC(=O)CCCCCCCCCCCCCCC [C16-KGK-C16, C15H31CO-KGK-NH—C16H33]",
    "RESULT": 7
  }
]

Ask: Given CCCCCCCCCCCCCCCCNC(=O)[C@H](CCCCN)NC(=O)CNC(=O)CNC(=O)CNC(=O)[C@H](CCCCN)NC(=O)CCCCCCCCCCCCCCC [C16-KGGGK-C16, C15H31CO-KGGGK-NH—C16H33] (HELM PEPTIDE1{[CCCCCCCCCCCCCCCC(=O)[*:2]].K.G.G.G.K.[CCCCCCCCCCCCCCCCN[*:1]]}$$$$V2.0) , respond with its activity at 15 µM.
Result: 29
